meta.source: patent US20150352108A1

The following compounds are shown together with reported pIC50 values.
# measured on: IKKε (Homo sapiens, UniProt Q14164)
# Construct: His-tag; made in house; host or cells: Sf9 insect cells
# method description: In-vitro IKKε kinase assay ([γ33]ATP filter-plate)
# Type: biochemical
# study conditions: text bins; read-out: IC50 for inhibition of the kinase activity of IKKε
pIC50: −log10 of the molar value.

Enquiry: Dear colleague, I am looking for the recorded pIC50 of the following compound: `COc1cc(Nc2nccc(-c3ccc(OC4CCOCC4)c(C#N)c3)n2)ccc1-n1cnnn1`
Return: > 8.30

Enquiry: What do you get for `Cc1cn(Cc2cccc(Nc3nccc(-c4ccc(O[C@@H]5CCN(C(=O)CO)C5)c(C#N)c4)n3)c2)cn1` ?
Return: > 8.30

Enquiry: What do you get for `CO[C@@H](C)C(=O)N1CCC(Oc2ccc(-c3ccnc(Nc4ccc(N5CCOCC5)cc4)n3)cc2C#N)CC1` ?
Return: 7.30 to 8.30

Enquiry: What do you get for `N#Cc1cc(-c2ccnc(Nc3cccc(NC(=O)N4CC(O)C4)c3)n2)ccc1OC1CCOCC1` ?
Return: > 8.30

Enquiry: What do you get for `N#Cc1cc(-c2ccnc(Nc3ccc(N4CCOCC4)cc3)n2)ccc1NC1CCOCC1` ?
Return: 7.30 to 8.30

Enquiry: What do you get for `CC(C)C(=O)Nc1ccc(-c2ccnc(Nc3ccc(N4CCOCC4)cc3)n2)cc1C#N` ?
Return: 7.30 to 8.30

Enquiry: What do you get for `COc1cc(Nc2nccc(-c3ccc(O[C@@H]4CCN(C(=O)CO)C4)c(C#N)c3)n2)ccc1N1CCOCC1` ?
Return: > 8.30

Enquiry: What do you get for `CC(=O)NCc1ccc(Nc2nccc(-c3ccc(OC4CCOCC4)c(C#N)c3)n2)cc1` ?
Return: > 8.30

Enquiry: What do you get for `N#Cc1cc(-c2ccnc(Nc3ccc(N4CCOCC4)cc3)n2)ccc1NN1CCOCC1` ?
Return: 7.30 to 8.30

Enquiry: What do you get for `COc1ccc(Nc2nccc(-c3ccc(N(C)C)c(C#N)c3)n2)cc1OC` ?
Return: > 8.30

Enquiry: What do you get for `N#Cc1cc(-c2ccnc(Nc3ccc(N4CCOCC4)cc3)n2)ccc1NC(=O)C1CCCCC1` ?
Return: 7.30 to 8.30

Enquiry: What do you get for `COc1ccc(-c2ccnc(Nc3cccc(OCCN4CCOCC4)c3)n2)cc1C#N` ?
Return: 7.30 to 8.30

* * *

# measured on: IKKε (Homo sapiens, UniProt Q14164)
# Construct: His-tag; made in house; host or cells: Sf9 insect cells
# method description: In-vitro IKKε kinase assay ([γ33]ATP filter-plate)
# Assay type: biochemical
# study conditions: text bins; read-out: IC50 for inhibition of the kinase activity of IKKε
measured property: IC50

compound structure string: CC(=O)N1CC(COc2ccc(-c3ccnc(Nc4ccc(N5CCOCC5)cc4)n3)cc2C#N)C1
IC50: 50 to 500 nM

Enquiry: Dear colleague, I am looking for the recorded IC50 of the following compound: `COc1cc(NC(=O)NC[C@@H](C)O)cc(Nc2nccc(-c3ccc(OC)c(C#N)c3)n2)c1`
Return: 5 to 50 nM

Enquiry: What do you get for `CN(C)CCNc1cccc(Nc2nccc(-c3ccc(OC4CCOCC4)c(C#N)c3)n2)c1` ?
Return: < 5 nM

Enquiry: What do you get for `COc1cc(Nc2nccc(-c3ccc(OC4CCOCC4)c(C#N)c3)n2)ccc1S(=O)(=O)NC1CCN(C)CC1` ?
Return: < 5 nM

Enquiry: What do you get for `CS(=O)(=O)N1CCC(Oc2ccc(-c3ccnc(Nc4ccc(N5CCOCC5)cc4)n3)cc2C#N)CC1` ?
Return: < 5 nM

Enquiry: What do you get for `N#Cc1cc(-c2ccnc(Nc3ccc(N4CCOCC4)cc3)n2)ccc1NC(=O)Cc1ccccc1` ?
Return: 50 to 500 nM

Enquiry: What do you get for `N#Cc1cc(-c2ccnc(Nc3cccc(Cn4ccnn4)c3)n2)ccc1OC1CCOCC1` ?
Return: < 5 nM

Enquiry: What do you get for `COc1ccc(-c2ccnc(Nc3ccc(OC)c(OCCN4CCOCC4)c3)n2)cc1C#N` ?
Return: 5 to 50 nM

* * *

# measured on: IKKε (Homo sapiens, UniProt Q14164)
# Construct: His-tag; made in house; host or cells: Sf9 insect cells
# Sequence (Q14164 1-716): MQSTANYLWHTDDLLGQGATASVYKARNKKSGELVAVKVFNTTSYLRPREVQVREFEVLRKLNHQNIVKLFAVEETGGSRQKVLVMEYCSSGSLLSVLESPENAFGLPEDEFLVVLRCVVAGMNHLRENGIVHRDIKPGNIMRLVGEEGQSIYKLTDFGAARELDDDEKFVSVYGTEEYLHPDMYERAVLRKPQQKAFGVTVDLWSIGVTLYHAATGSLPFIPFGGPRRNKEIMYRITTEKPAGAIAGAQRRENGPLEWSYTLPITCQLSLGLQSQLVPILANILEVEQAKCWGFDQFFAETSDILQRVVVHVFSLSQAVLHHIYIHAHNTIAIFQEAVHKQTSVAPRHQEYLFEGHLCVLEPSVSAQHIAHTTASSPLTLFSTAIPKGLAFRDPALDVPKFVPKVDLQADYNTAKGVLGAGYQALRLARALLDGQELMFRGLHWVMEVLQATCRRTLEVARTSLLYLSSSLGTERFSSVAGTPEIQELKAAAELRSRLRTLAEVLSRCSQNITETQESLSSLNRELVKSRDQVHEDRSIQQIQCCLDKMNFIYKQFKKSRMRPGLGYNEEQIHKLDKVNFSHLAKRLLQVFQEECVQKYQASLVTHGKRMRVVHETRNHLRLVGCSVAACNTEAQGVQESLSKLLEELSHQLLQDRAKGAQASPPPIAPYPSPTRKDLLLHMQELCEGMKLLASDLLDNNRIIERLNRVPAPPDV
# method description: In-vitro IKKε kinase assay ([γ33]ATP filter-plate)
# Format: biochemical
# study conditions: text bins; read-out: IC50 for inhibition of the kinase activity of IKKε
# Protocol: IKKε enzyme was produced as a His-tag fusion in Sf9 cells and used at a final concentration of […]. TBK1 enzyme was produced as a His-tag fusion in Sf9 cells and used at a final concentration of 0.1 μg/ml. […] After air drying, scintillant (PerkinElmer, Waltham, Mass.) was added and the plates were read on a PerkinElmer TopCount NXT instrument. […]
pIC50: −log10 of the molar value.
measured property: pIC50

Example results:
compound: CN(C)CCNS(=O)(=O)c1ccc(Nc2nccc(-c3ccc(OC4CCOCC4)c(C#N)c3)n2)cc1 [compound 334]
pIC50: > 8.30

compound: N#Cc1cc(-c2ccnc(Nc3ccc(S(=O)(=O)Nc4ccccn4)cc3)n2)ccc1OC1CCOCC1 [compound 593]
pIC50: > 8.30

compound: N#Cc1cc(-c2ccnc(Nc3ccc(N4CCOCC4)cc3)n2)ccc1OCCO [Example 239]
pIC50: > 8.30

compound: COc1cc(Nc2nccc(-c3ccc(OC4CCOCC4)c(C#N)c3)n2)ccc1C(=O)N1CC(CN(C)C)C1 [compound 507]
pIC50: > 8.30

Enquiry: Dear colleague, I am looking for the recorded pIC50 of the following compound: COc1cc(NC(=O)NCCO)cc(Nc2nccc(-c3ccc(OC4CCN(C(C)=O)CC4)c(C#N)c3)n2)c1 [compound 380]
Return: 7.30 to 8.30

Enquiry: What do you get for N#Cc1cc(-c2ccnc(Nc3ccc(N4CCOCC4)cc3)n2)ccc1OC1CN(C(=O)CO)C1 [Example 131] ?
Return: 6.30 to 7.30

Enquiry: What do you get for CN(C)C(=O)Nc1cccc(Nc2nccc(-c3ccc(OC4CCOCC4)c(C#N)c3)n2)c1 [compound 631] ?
Return: > 8.30

* * *

# measured on: IKKε (Homo sapiens)
# Construct: His-tag; made in house; host or cells: Sf9 insect cells
# Sequence (Q14164 1-716): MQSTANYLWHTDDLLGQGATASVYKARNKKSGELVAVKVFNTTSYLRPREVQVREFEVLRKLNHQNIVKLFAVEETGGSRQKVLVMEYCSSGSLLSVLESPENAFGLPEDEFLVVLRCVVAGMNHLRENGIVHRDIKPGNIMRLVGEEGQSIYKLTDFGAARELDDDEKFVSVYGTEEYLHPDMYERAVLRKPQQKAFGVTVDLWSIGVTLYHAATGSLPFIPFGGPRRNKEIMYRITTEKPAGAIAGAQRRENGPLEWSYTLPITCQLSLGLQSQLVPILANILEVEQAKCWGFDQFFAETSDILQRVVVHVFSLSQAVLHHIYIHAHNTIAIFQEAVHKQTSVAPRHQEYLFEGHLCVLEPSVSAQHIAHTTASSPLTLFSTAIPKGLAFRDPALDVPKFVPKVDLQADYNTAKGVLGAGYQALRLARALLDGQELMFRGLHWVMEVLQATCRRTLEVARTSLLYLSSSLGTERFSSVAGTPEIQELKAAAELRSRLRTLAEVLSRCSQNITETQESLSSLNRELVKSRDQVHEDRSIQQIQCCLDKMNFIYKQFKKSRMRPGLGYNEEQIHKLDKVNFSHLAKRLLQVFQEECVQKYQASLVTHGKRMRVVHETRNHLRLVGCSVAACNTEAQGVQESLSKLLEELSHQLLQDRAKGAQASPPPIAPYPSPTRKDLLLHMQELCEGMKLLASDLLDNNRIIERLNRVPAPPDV
# method description: In-vitro IKKε kinase assay ([γ33]ATP filter-plate)
# Assay type: biochemical
# study conditions: text bins; read-out: IC50 for inhibition of the kinase activity of IKKε
# Procedure: IKKε enzyme was produced as a His-tag fusion in Sf9 cells and used at a final concentration of […]. TBK1 enzyme was produced as a His-tag fusion in Sf9 cells and used at a final concentration of 0.1 μg/ml. […] After air drying, scintillant (PerkinElmer, Waltham, Mass.) was added and the plates were read on a PerkinElmer TopCount NXT instrument. […]
measured property: IC50

compound: CN1CCC(NS(=O)(=O)c2ccc(Nc3nccc(-c4ccc(OC5CCOCC5)c(C#N)c4)n3)cc2)CC1 [compound 371]
measured on: IKKε (Homo sapiens)
result: < 5 nM
--
compound: COc1cc(Nc2nccc(-c3ccc(OC4CCN(C(=O)[C@H](C)O)C4)c(C#N)c3)n2)ccc1N1CCOCC1 (stereo partly shown) [Example 116]
measured on: IKKε (Homo sapiens)
result: 5 to 50 nM
--
compound: N#Cc1cc(-c2ccnc(Nc3ccc(N4CCOCC4)cc3)n2)ccc1OC1CCN(S(N)(=O)=O)C1 (stereo not shown) [Example 225]
measured on: IKKε (Homo sapiens)
result: < 5 nM
--
compound: COc1cc(Nc2nccc(-c3ccc(OC4CCOCC4)c(C#N)c3)n2)ccc1OCCOCCNS(=O)(=O)N(C)C [Example 26]
measured on: IKKε (Homo sapiens)
result: < 5 nM
--
compound: COc1ccc(-c2ccnc(Nc3ccc(CN4CCN(C)CC4)cc3)n2)cc1C#N [compound 337]
measured on: IKKε (Homo sapiens)
result: 5 to 50 nM
--
compound: N#Cc1cc(-c2ccnc(Nc3ccc(N4CCOCC4)cc3)n2)ccc1OCC1CCN(C(=O)CO)CC1 [Example 233]
measured on: IKKε (Homo sapiens)
result: 5 to 50 nM

Enquiry: Dear colleague, I am looking for the recorded IC50 of the following compound: N#Cc1cc(-c2ccnc(Nc3ccc(N4CCOCC4)cc3)n2)ccc1OCc1cccnc1 [Example 168]
Return: 5 to 50 nM
